Readings of IC50 for the listed compounds
# target.of.assay: ALK6 (aa168-495) (Homo sapiens (Human), UniProt O00238)
# Sequence (O00238 168-495): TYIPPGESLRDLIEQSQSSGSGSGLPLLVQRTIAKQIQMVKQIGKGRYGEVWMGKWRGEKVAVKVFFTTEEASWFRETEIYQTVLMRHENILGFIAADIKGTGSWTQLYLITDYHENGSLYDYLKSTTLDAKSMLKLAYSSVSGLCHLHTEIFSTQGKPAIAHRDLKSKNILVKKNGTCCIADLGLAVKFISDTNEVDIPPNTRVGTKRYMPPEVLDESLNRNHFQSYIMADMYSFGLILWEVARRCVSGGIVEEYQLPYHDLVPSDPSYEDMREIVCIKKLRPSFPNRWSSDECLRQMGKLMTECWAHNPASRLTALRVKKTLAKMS

CC(C)N1C[C@@H]2C[C@]2(c2ccc(-c3cnc(N)c(C(=O)N[C@H]4CC[C@H](O)CC4)c3)cc2)C1 = 3.13 µM
COCCN1C[C@H]2C[C@@]2(c2ccc(-c3cnc(N)c(C(=O)N[C@H]4CC[C@H](O)CC4)c3)cc2)C1 = 7.7 µM
Nc1ncc(-c2ccc(OCCCN3CCOCC3)cc2)cc1C(=O)NC1CCCCC1 = 20.2 µM

The measured IC50 associated with "Nc1ncc(-c2ccc([C@]34C[C@H]3CN(CC3COC3)C4)cc2)cc1C(=O)N[C@H]1CC[C@H](O)CC1" reads 2.6 µM

###

Target or system ALK5 (aa162-503) (Homo sapiens (Human)); recorded quantity pIC50.
By convention, pIC50 is the negative base-10 log of a molar concentration.

Nc1ncc(-c2ccc(C(=O)N3CCOCC3)cc2)cc1C(=O)NC1CCCCC1 = 5.28
Nc1ncc(-c2ccc([C@]34C[C@H]3CN(C3CCOCC3)C4)cc2)cc1C(=O)NC12CCC(O)(CC1)CC2 = 5.32
CC(C)N1C[C@@H]2C[C@]2(c2ccc(-c3cnc(N)c(C(=O)NC45CC(CO)(C4)C5)c3)cc2)C1 = 5.00

pIC50 value, target or system ALK5 (aa162-503) (Homo sapiens (Human)), for "Nc1ncc(-c2ccc([C@]34C[C@H]3CN(CCF)C4)cc2)cc1C(=O)N[C@H]1CC[C@H](O)CC1" : 5.62

pIC50 value, target or system ALK5 (aa162-503) (Homo sapiens (Human)), for "N#CCCN1C[C@@H]2C[C@]2(c2ccc(-c3cnc(N)c(C(=O)N[C@H]4CC[C@H](O)CC4)c3)cc2)C1" : 5.85

pIC50 value, target or system ALK5 (aa162-503) (Homo sapiens (Human)), for "CN1CCN(CCNC(=O)c2ccc(-c3cnc(N)c(C(=O)NC4CCCCC4)c3)cc2)CC1" : 5.77

pIC50 value, target or system ALK5 (aa162-503) (Homo sapiens (Human)), for "C[C@@H]1CCCN1Cc1ccc(-c2cnc(N)c(C(=O)N[C@H]3CC[C@](C)(O)CC3)c2)c(F)c1" : 5.24

pIC50 value, target or system ALK5 (aa162-503) (Homo sapiens (Human)), for "Nc1ncc(-c2ccc(N3CCCCC3)cc2)cc1C(=O)NC1CCCCC1" : 5.14

pIC50 value, target or system ALK5 (aa162-503) (Homo sapiens (Human)), for "CC(C)N1C[C@@H]2C[C@]2(c2ccc(-c3cnc(N)c(C(=O)N[C@H]4CC[C@@H](O)CC4)c3)cc2)C1" : 5.52

pIC50 value, target or system ALK5 (aa162-503) (Homo sapiens (Human)), for "C#CCN1C[C@@H]2C[C@]2(c2ccc(-c3cnc(N)c(C(=O)N[C@H]4CC[C@H](O)CC4)c3)cc2)C1" : 5.70

pIC50 value, target or system ALK5 (aa162-503) (Homo sapiens (Human)), for "Nc1ncc(-c2ccc(OCCCN3CCOCC3)cc2)cc1C(=O)NC1CCCCC1" : 5.07

pIC50 value, target or system ALK5 (aa162-503) (Homo sapiens (Human)), for "Nc1ncc(-c2ccc([C@@]34C[C@@H]3CN(CC(F)(F)F)C4)cc2)cc1C(=O)N[C@H]1CC[C@H](O)CC1" : 5.00

pIC50 value, target or system ALK5 (aa162-503) (Homo sapiens (Human)), for "CC(C)(O)C12CC(NC(=O)c3cc(-c4ccc([C@@]56C[C@@H]5CN(C5CCOCC5)C6)cc4)cnc3N)(C1)C2" : 5.00

pIC50 value, target or system ALK5 (aa162-503) (Homo sapiens (Human)), for "Nc1ncc(-c2ccc([C@@]34C[C@@H]3CN(C3CCOCC3)C4)cc2)cc1C(=O)NC12CC(CO)(C1)C2" : 5.40

pIC50 value, target or system ALK5 (aa162-503) (Homo sapiens (Human)), for "Nc1ncc(-c2ccc([C@@]34C[C@@H]3CN(CCN3CCOCC3)C4)cc2)cc1C(=O)NC12CCC(O)(CC1)CC2" : 5.42

###

Target or system ALK5 (aa162-503) (Homo sapiens (Human), UniProt P36897); recorded quantity pIC50.
By convention, pIC50 is the negative base-10 log of a molar concentration.

Reference set, count: 2
Nc1ncc(-c2ccc([C@@]34C[C@@H]3CN(C(CF)CF)C4)cc2)cc1C(=O)N[C@H]1CC[C@H](O)CC1 = 5.00
Nc1ncc(-c2ccc([C@]34C[C@H]3CN(C3CCOCC3)C4)cc2)cc1C(=O)NC12CC(CO)(C1)C2 = 5.03

Let's switch to this molecule now.
pIC50 value, target or system ALK5 (aa162-503) (Homo sapiens (Human), UniProt P36897), for "Cc1cc(CN2CCC[C@H]2C)ccc1-c1cnc(N)c(C(=O)N[C@H]2CC[C@](C)(O)CC2)c1" : 5.00

###

# Test system: BMP response element (BRE) luciferase reporter in HuH7 cells, BMP6 stimulated
# method.description: BMP signaling reporter gene assay
# Assay type: cell-based
# setup.conditions: Homo sapiens, Huh-7; HuH7 BRE-luciferase, BMP6 100 ng/ml, 5 hours; read-out: MSD BMP RGA IC50
Readings of pIC50 for the listed compounds
By convention, pIC50 is the negative base-10 log of a molar concentration.

Reference set, count: 5
Nc1ncc(-c2ccc([C@]34C[C@H]3CN(C3CCOCC3)C4)cc2)cc1C(=O)N[C@H]1CC[C@H](O)CC1 = 7.59
C[C@H](c1ccc(-c2cnc(N)c(C(=O)N[C@H]3CC[C@H](O)CC3)c2)cc1)N1CC2(COC2)C1 = 7.21
C[C@H](c1ccc(-c2cnc(N)c(C(=O)N[C@H]3CC[C@H](O)CC3)c2)c(Cl)c1)N1CC2(COC2)C1 = 6.27
Nc1ncc(-c2ccc([C@]34C[C@H]3CN(CCF)C4)cc2)cc1C(=O)N[C@H]1CC[C@H](O)CC1 = 7.29
Nc1ncc(-c2cccc(C(=O)N3CCN(CCO)CC3)c2)cc1C(=O)NC1CCCCC1 = 5.03

pIC50 value, target or system BMP response element (BRE) luciferase reporter in HuH7 cells, BMP6 stimulated, for "Nc1ncc(-c2ccc([C@@]34C[C@@H]3CN(CCN3CCOCC3)C4)cc2)cc1C(=O)N[C@H]1CC[C@H](O)CC1" : 7.21

pIC50 value, target or system BMP response element (BRE) luciferase reporter in HuH7 cells, BMP6 stimulated, for "CC(C)N1C[C@@H]2C[C@]2(c2ccc(-c3cnc(N)c(C(=O)N[C@H]4CC[C@H](O)CC4)c3)cc2)C1" : 7.37

pIC50 value, target or system BMP response element (BRE) luciferase reporter in HuH7 cells, BMP6 stimulated, for "C#CCN1C[C@H]2C[C@@]2(c2ccc(-c3cnc(N)c(C(=O)N[C@H]4CC[C@H](O)CC4)c3)cc2)C1" : 6.40

###

# Test system: BMP response element (BRE) luciferase reporter in HuH7 cells, BMP6 stimulated
# method.description: BMP signaling reporter gene assay
# Type: cell-based
# setup.conditions: Homo sapiens, Huh-7; HuH7 BRE-luciferase, BMP6 100 ng/ml, 5 hours; read-out: MSD BMP RGA IC50
Readings of log10(IC50) for the listed molecules
Values reflect log10 of reported IC50 (nM).

Reference set, count: 5
CC(C)N1CCN(c2ccc(-c3cnc(N)c(C(=O)N[C@H]4CC[C@H](O)CC4)c3)c(F)c2)CC1 [Example 8] = 1.84
Nc1ncc(-c2ccc([C@@]34C[C@@H]3CN(CCN3CCOCC3)C4)cc2)cc1C(=O)NC12CCC(O)(CC1)CC2 [Example 15] = 1.87
Nc1ncc(-c2ccc([C@@]34C[C@@H]3CN(CCF)C4)cc2)cc1C(=O)N[C@H]1CC[C@H](O)CC1 [Example 48] = 2.56
Nc1ncc(-c2ccc([C@@]34C[C@@H]3CN(CC(F)(F)F)C4)cc2)cc1C(=O)N[C@H]1CC[C@H](O)CC1 [Example 77] = 3.11
CC(C)N1C[C@H]2C[C@@]2(c2ccc(-c3cnc(N)c(C(=O)N[C@H]4CC[C@H](O)CC4)c3)cc2)C1 [Example 2] = 1.32

log10(IC50) value, target or system BMP response element (BRE) luciferase reporter in HuH7 cells, BMP6 stimulated, for Nc1ncc(-c2ccc([C@@]34C[C@@H]3CN(C3COC3)C4)cc2)cc1C(=O)NC12CCC(O)(CC1)CC2 [Example 64] : 2.58

log10(IC50) value, target or system BMP response element (BRE) luciferase reporter in HuH7 cells, BMP6 stimulated, for Nc1ncc(-c2ccc([C@@]34C[C@@H]3CN(CCF)C4)cc2)cc1C(=O)NC12CCC(O)(CC1)CC2 [Example 57] : 2.16

log10(IC50) value, target or system BMP response element (BRE) luciferase reporter in HuH7 cells, BMP6 stimulated, for C[C@]1(O)CC[C@H](NC(=O)c2cc(-c3ccc([C@]45C[C@H]4CN(C4CCOCC4)C5)cc3)cnc2N)CC1 [Example 62] : 2.13

log10(IC50) value, target or system BMP response element (BRE) luciferase reporter in HuH7 cells, BMP6 stimulated, for CC(F)(F)CN1C[C@@H]2C[C@]2(c2ccc(-c3cnc(N)c(C(=O)N[C@H]4CC[C@H](O)CC4)c3)cc2)C1 [Example 76] : 3.36

log10(IC50) value, target or system BMP response element (BRE) luciferase reporter in HuH7 cells, BMP6 stimulated, for C[C@]1(O)CC[C@H](NC(=O)c2cc(-c3ccc([C@@]45C[C@@H]4CN(C4CCC(F)(F)CC4)C5)cc3)cnc2N)CC1 [Example 82] : 1.75

log10(IC50) value, target or system BMP response element (BRE) luciferase reporter in HuH7 cells, BMP6 stimulated, for Nc1ncc(-c2ccc([C@@]34C[C@@H]3CN(CCOCC(F)(F)F)C4)cc2)cc1C(=O)N[C@H]1CC[C@H](O)CC1 [Example 41] : 2.20

log10(IC50) value, target or system BMP response element (BRE) luciferase reporter in HuH7 cells, BMP6 stimulated, for CC(C)N1C[C@@H]2C[C@]2(c2ccc(-c3cnc(N)c(C(=O)NC45CC(CO)(C4)C5)c3)cc2)C1 [Example 16] : 1.90

log10(IC50) value, target or system BMP response element (BRE) luciferase reporter in HuH7 cells, BMP6 stimulated, for Nc1ncc(-c2ccc([C@@]34C[C@@H]3CN(C3CCC(F)(F)CC3)C4)cc2)cc1C(=O)N[C@H]1CC[C@H](O)CC1 [Example 25] : 1.54

log10(IC50) value, target or system BMP response element (BRE) luciferase reporter in HuH7 cells, BMP6 stimulated, for CC(C)N1C[C@@H]2C[C@]2(c2ccc(-c3cnc(N)c(C(=O)N[C@H]4CC[C@@H](O)CC4)c3)cc2)C1 [Example 71] : 1.93

log10(IC50) value, target or system BMP response element (BRE) luciferase reporter in HuH7 cells, BMP6 stimulated, for Nc1ncc(-c2ccc([C@@]34C[C@@H]3CN(C3CCOCC3)C4)cc2)cc1C(=O)N[C@H]1CC[C@@H](O)CC1 [Example 22] : 1.61
